Entries and their measured residual activity follow.
Biological target: CDK7 CCNH MNAT1 (human) (UniProt P50613+P51948+P51946)
Sequence (P50613 whole entry, looked up): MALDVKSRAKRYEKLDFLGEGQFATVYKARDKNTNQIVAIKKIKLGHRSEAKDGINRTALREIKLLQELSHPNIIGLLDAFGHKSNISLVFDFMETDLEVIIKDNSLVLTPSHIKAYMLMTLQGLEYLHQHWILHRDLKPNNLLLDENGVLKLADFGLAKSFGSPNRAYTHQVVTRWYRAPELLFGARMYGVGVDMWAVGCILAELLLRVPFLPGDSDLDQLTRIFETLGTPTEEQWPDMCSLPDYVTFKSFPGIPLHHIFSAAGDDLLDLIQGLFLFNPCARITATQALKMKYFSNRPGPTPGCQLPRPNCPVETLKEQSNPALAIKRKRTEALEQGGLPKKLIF
Sequence (P51946 whole entry, looked up): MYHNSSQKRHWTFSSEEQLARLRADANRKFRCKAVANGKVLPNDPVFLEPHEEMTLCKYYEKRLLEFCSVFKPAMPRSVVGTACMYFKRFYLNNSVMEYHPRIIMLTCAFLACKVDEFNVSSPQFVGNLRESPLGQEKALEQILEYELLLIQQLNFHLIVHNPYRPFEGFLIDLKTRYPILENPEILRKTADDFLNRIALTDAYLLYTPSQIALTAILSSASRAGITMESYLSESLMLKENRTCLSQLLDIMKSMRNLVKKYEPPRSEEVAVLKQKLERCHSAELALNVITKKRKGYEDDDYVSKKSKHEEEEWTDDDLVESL
Sequence (P51948 whole entry, looked up): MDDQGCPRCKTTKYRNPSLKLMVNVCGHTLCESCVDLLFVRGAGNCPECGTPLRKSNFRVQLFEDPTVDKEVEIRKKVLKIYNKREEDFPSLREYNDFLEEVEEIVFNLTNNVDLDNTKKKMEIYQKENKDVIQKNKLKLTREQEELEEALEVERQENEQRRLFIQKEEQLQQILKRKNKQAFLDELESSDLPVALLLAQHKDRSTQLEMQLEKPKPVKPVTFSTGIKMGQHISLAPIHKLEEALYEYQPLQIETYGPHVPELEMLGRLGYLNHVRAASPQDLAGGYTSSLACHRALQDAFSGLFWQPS
Test: radiometric filter-binding kinase assay, Kinase HotSpot
Settings: compound 0.5 µM; ATP 10 µM
The figure you give is taken to be in %; do not add the unit.

[
  {
    "MOLECULE": "CC(C)[C@H](CO)Nc1nc(Nc2cccc(Cl)c2)c2ncn(C(C)C)c2n1",
    "NUMBER": 59.5
  },
  {
    "MOLECULE": "CC(C)(C)c1nc2c3ccc(F)cc3c3c(=O)[nH]ccc3c2[nH]1",
    "NUMBER": 92.8
  },
  {
    "MOLECULE": "O=C(NC(NC(=S)Nc1ccc(F)c([N+](=O)[O-])c1)C(Cl)(Cl)Cl)C(c1ccccc1)c1ccccc1 (centres undefined)",
    "NUMBER": 99
  },
  {
    "MOLECULE": "O=C1Nc2cc(Br)ccc2/C1=C1/Nc2ccccc2/C1=N\\O",
    "NUMBER": 79.1
  },
  {
    "MOLECULE": "O=C(Nc1ccc(Cl)cc1)c1ccccc1NCc1ccncc1",
    "NUMBER": 95.1
  },
  {
    "MOLECULE": "O=C1Nc2ccccc2/C1=C\\c1c(Cl)[nH]c2ccccc12",
    "NUMBER": 99.7
  }
]

Query block: Identify measured residual activity corresponding to `Clc1ccc(Nc2nnc(Cc3ccncc3)c3ccccc23)cc1`
Result block: 107

Query block: Identify measured residual activity corresponding to `Nc1n[nH]c2nnc(-c3c(-c4ccccc4)nn4ccccc34)cc12`
Result block: 99

Query block: Identify measured residual activity corresponding to `O=c1cc(N2CCNCC2)oc2c(-c3ccccc3)cccc12`
Result block: 99.3

Query block: Identify measured residual activity corresponding to CS(=O)c1ccc(-c2nc(-c3ccc(F)cc3)c(-c3ccncc3)[nH]2)cc1 (centres undefined)
Result block: 96.8

Query block: Identify measured residual activity corresponding to `CCOc1nc(NC(=O)Cc2cc(OC)ccc2OC)cc(N)c1C#N`
Result block: 103

Query block: Identify measured residual activity corresponding to `NC(=O)c1ccc(N(C(N)=O)c2c(F)cccc2F)nc1-c1ccc(F)cc1F`
Result block: 102
